Measured values drawn from the supplement of paper PMC11246515 for this set.

# experimentDescription: total protein half-life in vivo (active degradation + dilution); higher = more stable protein
# settings: wild type E. coli NCM3722; growth: C-lim chemostat; doubling time 3 h
The following sequences are shown together with reported total protein half-life in vivo values.
Number only, in h; omit the unit.

Which value of total protein half-life in vivo has been reported for MQENYKILVVDDDMRLRALLERYLTEQGFQVRSVANAEQMDRLLTRESFHLMVLDLMLPGEDGLSICRRLRSQSNPMPIIMVTAKGEEVDRIVGLEIGADDYIPKPFNPRELLARIRAVLRRQANELPGAPSQEEAVIAFGKFKLNLGTREMFREDEPMPLTSGEFAVLKALVSHPREPLSRDKLMNLARGREYSAMERSIDVQISRLRRMVEEDPAHPRYIQTVWGLGYVFVPDGSKA [P0AA16] in the records?
3.32

What value of total protein half-life in vivo has been reported for the following sequence? `MKQPGEELQETLTELDDRAVVDYLIKNPEFFIRNARAVEAIRVPHPVRGTVSLVEWHMARARNHIHVLEENMALLMEQAIANEGLFYRLLYLQRSLTAASSLDDMLMRFHRWARDLGLAGASLRLFPDRWRLGAPSNHTHLALSRQSFEPLRIQRLGQEQHYLGPLNGPELLVVLPEAKAVGSVAMSMLGSDADLGVVLFTSRDASHYQQGQGTQLLHEIALMLPELLERWIERV`
1.4

Need total protein half-life in vivo of MPKFRVSLFSLALMLAVPFAPQAVAKTAAATTASQPEIASGSAMIVDLNTNKVIYSNHPDLVRPIASISKLMTAMVVLDARLPLDEKLKVDISQTPEMKGVYSRVRLNSEISRKDMLLLALMSSENRAAASLAHHYPGGYKAFIKAMNAKAKSLGMNNTRFVEPTGLSVHNVSTARDLTKLLIASKQYPLIGQLSTTREDMATFSNPTYTLPFRNTNHLVYRDNWNIQLTKTGFTNAAGHCLVMRTVINNKPVALVVMDAFGKYTHFADASRLRTWIETGKVMPVPAAALSYKKQKAAQMAAAGQTAQND [P0AFI5] , thanks.
1.2

Fill in the blank: the reported total protein half-life in vivo of `MHQVVCATTNPAKIQAILQAFHEIFGEGSCHIASVAVESGVPEQPFGSEETRAGARNRVANARRLLPEADFWVAIEAGIDGDSTFSWVVIENASQRGEARSATLPLPAVILEKVREGEALGPVMSRYTGIDEIGRKEGAIGVFTAGKLTRASVYHQAVILALSPFHNAVY` is ____.
2.81

Quick one: total protein half-life in vivo of `MIEIESRELADIPVLHAYPVGQKDTPLPCVIFYHGFTSSSLVYSYFAVALAQAGLRVIMPDAPDHGSRFSGDAARRLNQFWQILLQSMQEFTTLRAAIAEENWLLDDRLAVGGASMGAMTALGITARHPTVRCTASMMGSGYFTSLARSLFPPLIPETAAQQNEFNNIVAPLAEWEATNHLEQLSDRPLLLWHGLDDDVVPADESLRLQQALSETGRDKLLTCSWQPGVRHRITPEALDAAVTFFRQHL` ?
3.24

More entries:
Using the record for `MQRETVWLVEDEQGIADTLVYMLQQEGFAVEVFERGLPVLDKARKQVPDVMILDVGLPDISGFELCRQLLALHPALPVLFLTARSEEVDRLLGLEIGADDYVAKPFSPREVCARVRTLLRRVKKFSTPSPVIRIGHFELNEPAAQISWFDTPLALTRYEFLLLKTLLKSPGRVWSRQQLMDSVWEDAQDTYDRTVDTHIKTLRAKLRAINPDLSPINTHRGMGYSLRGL` , report its total protein half-life in vivo.
2.74

Need total protein half-life in vivo of `MRKLTALFVASTLALGAANLAHAADTTTAAPADAKPMMHHKGKFGPHQDMMFKDLNLTDAQKQQIREIMKGQRDQMKRPPLEERRAMHDIIASDTFDKVKAEAQIAKMEEQRKANMLAHMETQNKIYNILTPEQKKQFNANFEKRLTERPAAKGKMPATAE` , thanks.
2.63

Which total protein half-life in vivo value belongs to MLEILYQDEWLVAVNKPSGWLVHRSWLDRDEKVVVMQTVRDQIGQHVFTAHRLDRPTSGVLLMGLSSEAGRLLAQQFEQHQIQKRYHAIVRGWLMEEAVLDYPLVEELDKIADKFAREDKGPQPAVTHYRGLATVEMPVATGRYPTTRYGLVELEPKTGRKHQLRRHLAHLRHPIIGDSKHGDLRQNRSGAEHFGLQRLMLHASQLSLTHPFTGEPLTIHAGLDDTWMQALSQFGWRGLLPENERVEFSAPSGQDGEISS [P0AA41] ?
3

Please report the recorded total protein half-life in vivo for MTQPMPGKPAEDAENELDIRGLFRTLWAGKLWIIGMGLAFALIALAYTFFARQEWSSTAITDRPTVNMLGGYYSQQQFLRNLDVRSNMASADQPSVMDEAYKEFVMQLASWDTRREFWLQTDYYKQRMVGNSKADAALLDEMINNIQFIPGDFTRAVNDSVKLIAETAPDANNLLRQYVAFASQRAASHLNDELKGAWAARTIQMKAQVKRQEEVAKAIYDRRMNSIEQALKIAEQHNISRSATDVPAEELPDSEMFLLGRPMLQARLENLQAVGPAFDLDYDQNRAMLNTLNVGPTLDPRFQTYRYLRTPEEPVKRDSPRRAFLMIMWGIVGGLIGAGVALTRRCSK [P0AG00] .
3.48

Reported total protein half-life in vivo, sequence MTDMNILDLFLKASLLVKLIMLILIGFSIASWAIIIQRTRILNAAAREAEAFEDKFWSGIELSRLYQESQGKRDNLTGSEQIFYSGFKEFVRLHRANSHAPEAVVEGASRAMRISMNRELENLETHIPFLGTVGSISPYIGLFGTVWGIMHAFIALGAVKQATLQMVAPGIAEALIATAIGLFAAIPAVMAYNRLNQRVNKLELNYDNFMEEFTAILHRQAFTVSESNKG [P0ABU9] : ____
3.13

# query: total protein half-life in vivo of entry `MSKIRVLSVDDSALMRQIMTEIINSHSDMEMVATAPDPLVARDLIKKFNPDVLTLDVEMPRMDGLDFLEKLMRLRPMPVVMVSSLTGKGSEVTLRALELGAIDFVTKPQLGIREGMLAYNEMIAEKVRTAAKASLAAHKPLSAPTTLKAGPLLSSEKLIAIGASTGGTEAIRHVLQPLPLSSPALLITQHMPPGFTRSFADRLNKLCQIGVKEAEDGERVLPGHAYIAPGDRHMELSRSGANYQIKIHDGPAVNRHRPSVDVLFHSVAKQAGRNAVGVILTGMGNDGAAGMLAMRQAGAWTLAQNEASCVVFGMPREAINMGGVCEVVDLSQVSQQMLAKISAGQAIRI`
2.09

====

# experimentDescription: total protein half-life in vivo (active degradation + dilution); higher = more stable protein
# settings: E. coli NCM3722 delta-lon; growth: N-lim chemostat; doubling time 6 h
Rule: total protein half-life in vivo of 4 h or more gives satisfied; anything lower gives not satisfied.

Threshold query (total protein half-life in vivo >= 4 h) on MTHDNKLQVEAIKRGTVIDHIPAQIGFKLLSLFKLTETDQRITIGLNLPSGEMGRKDLIKIENTFLSEDQVDQLALYAPQATVNRIDNYEVVGKSRPSLPERIDNVLVCPNSNCISHAEPVSSSFAVRKRANDIALKCKYCEKEFSHNVVLAN [P0A7F3]
satisfied

Check this sequence for total protein half-life in vivo at or above 4 h: MFHRLWTLIRKELQSLLREPQTRAILILPVLIQVILFPFAATLEVTNATIAIYDEDNGEHSVELTQRFARASAFTHVLLLKSPQEIRPTIDTQKALLLVRFPADFSRKLDTFQTAPLQLILDGRNSNSAQIAANYLQQIVKNYQQELLEGKPKPNNSELVVRNWYNPNLDYKWFVVPSLIAMITTIGVMIVTSLSVAREREQGTLDQLLVSPLTTWQIFIGKAVPALIVATFQATIVLAIGIWAYQIPFAGSLALFYFTMVIYGLSLVGFGLLISSLCSTQQQAFIGVFVFMMPAILLSGYVSPVENMPVWLQNLTWINPIRHFTDITKQIYLKDASLDIVWNSLWPLLVITATTGSAAYAMFRRKVM [P0AFP9]
satisfied

# bool: total protein half-life in vivo of MNTISSLETTDLPAAYHIEQRAHAFPWSEKTFASNQGERYLNFQLTQNGKMAAFAITQVVLDEATLFNIAVDPDYQRQGLGRALLEHLIDELEKRGVATLWLEVRASNAAAIALYESLGFNEATIRRNYYPTTDGREDAIIMALPISM [P0A944] >= 4 h
satisfied

---
Does the sequence `MADVHDKATRSKNMRAIATRDTAIEKRLASLLTGQGLAFRVQDASLPGRPDFVVDEYRCVIFTHGCFWHHHHCYLFKVPATRTEFWLEKIGKNVERDRRDISRLQELGWRVLIVWECALRGREKLTDEALTERLEEWICGEGASAQIDTQGIHLLA` have recorded total protein half-life in vivo that is 4 h or more?
not satisfied

Confirm if total protein half-life in vivo reported for the sequence MNIKGKALLAGCIALAFSNMALAEDIKVAVVGAMSGPVAQYGDQEFTGAEQAVADINAKGGIKGNKLQIVKYDDACDPKQAVAVANKVVNDGIKYVIGHLCSSSTQPASDIYEDEGILMITPAATAPELTARGYQLILRTTGLDSDQGPTAAKYILEKVKPQRIAIVHDKQQYGEGLARAVQDGLKKGNANVVFFDGITAGEKDFSTLVARLKKENIDFVYYGGYHPEMGQILRQARAAGLKTQFMGPEGVANVSLSNIAGESAEGLLVTKPKNYDQVPANKPIVDAIKAKKQDPSGAFVWTTYAALQSLQAGLNQSDDPAEIAKYLKANSVDTVMGPLTWDEKGDLKGFEFGVFDWHANGTATDAK [P0AD96] is 4 h or above.
satisfied

Determine whether this sequence has total protein half-life in vivo no lower than 4 h: MEYQHWLREAISQLQASESPRRDAEILLEHVTGRGRTFILAFGETQLTDEQCQQLDALLTRRRDGEPIAHLTGVREFWSLPLFVSPATLIPRPDTECLVEQALARLPEQPCRILDLGTGTGAIALALASERPDCEIIAVDRMPDAVSLAQRNAQHLAIKNIHILQSDWFSALAGQQFAMIVSNPPYIDEQDPHLQQGDVRFEPLTALVAADSGMADIVHIIEQSRNALVSGGFLLLEHGWQQGEAVRQAFILAGYHDVETCRDYGDNERVTLGRYYQ [P0ACC1]
satisfied
